Data origin, for the record: patent US20220339270A1

target: T1, extracellular tau in the form of paired helical filaments (ePHF tau) (UniProt P10636-8 1-441, limits assumed); assay: ePHF tau ELISA, ePHF coated; antibody at 1000.0 ng/ml; anti-mouse-HRP
T1 construct: Aggregated, hyperphosphorylated tau preparation; not a single defined polypeptide
T1 sequence (P10636 other isoform, or with tags, fused parts or gaps limits assumed): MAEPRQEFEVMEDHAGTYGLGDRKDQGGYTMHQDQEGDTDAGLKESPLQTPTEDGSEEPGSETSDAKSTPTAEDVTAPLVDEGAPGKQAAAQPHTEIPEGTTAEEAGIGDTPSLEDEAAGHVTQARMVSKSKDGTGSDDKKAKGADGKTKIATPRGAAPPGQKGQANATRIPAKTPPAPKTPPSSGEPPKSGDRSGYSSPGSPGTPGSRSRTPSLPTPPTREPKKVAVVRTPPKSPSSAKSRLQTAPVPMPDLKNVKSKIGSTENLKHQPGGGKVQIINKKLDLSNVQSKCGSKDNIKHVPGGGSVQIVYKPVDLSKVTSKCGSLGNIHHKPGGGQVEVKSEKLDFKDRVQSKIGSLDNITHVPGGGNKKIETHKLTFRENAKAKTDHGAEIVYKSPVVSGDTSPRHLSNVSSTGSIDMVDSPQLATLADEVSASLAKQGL
Catalogue of OD450 readings, one per entry.

Sample records with OD450:
- BINDER: "anti-tau antibody MC1 expressed from viral genome construct MC1HF.F2AL (TAU_ITR72; SEQ ID NO: 2061) (antibody, V domains shown) VH: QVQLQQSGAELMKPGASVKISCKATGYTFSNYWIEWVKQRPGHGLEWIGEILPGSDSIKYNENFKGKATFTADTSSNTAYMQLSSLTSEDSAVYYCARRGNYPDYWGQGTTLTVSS VL: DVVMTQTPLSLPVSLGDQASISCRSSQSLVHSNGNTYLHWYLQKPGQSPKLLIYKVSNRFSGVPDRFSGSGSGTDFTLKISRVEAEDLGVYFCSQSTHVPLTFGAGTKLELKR"
  OD450: "1.1 OD450"
- BINDER: "anti-tau antibody MC1 expressed from viral genome construct MC1HIRESL (TAU_ITR75; SEQ ID NO: 2064) (antibody, mouse IgG1, kappa, V domains shown) VH: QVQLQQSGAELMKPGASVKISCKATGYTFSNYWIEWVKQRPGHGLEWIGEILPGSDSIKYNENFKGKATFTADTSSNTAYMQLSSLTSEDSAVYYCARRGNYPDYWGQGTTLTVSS VL: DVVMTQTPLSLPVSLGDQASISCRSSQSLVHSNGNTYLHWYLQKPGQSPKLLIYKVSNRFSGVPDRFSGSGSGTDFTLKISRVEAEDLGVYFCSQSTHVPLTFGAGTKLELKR"
  OD450: "1 OD450"

Consider now this further binder.
QUERY: Could you tell me which OD450 is on file for anti-tau antibody MC1 expressed from viral genome construct MC1LP2AH (TAU_ITR82; SEQ ID NO: 2071) (antibody, V domains shown) VH: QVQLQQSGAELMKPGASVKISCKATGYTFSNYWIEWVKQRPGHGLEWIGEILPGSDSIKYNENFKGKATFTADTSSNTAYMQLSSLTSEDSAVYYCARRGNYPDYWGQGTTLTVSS VL: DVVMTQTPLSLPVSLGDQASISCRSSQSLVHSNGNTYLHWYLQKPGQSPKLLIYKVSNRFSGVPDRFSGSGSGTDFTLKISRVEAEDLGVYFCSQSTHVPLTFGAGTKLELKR ?
RESULT: 0.8 OD450
